Assignment: determine reported Purity % for the given molecules.
assay: Stability test of BTG 1640 salts: purity under preservation conditions; format: physicochemical; settings: T = 5° C.; time 3 (months)
Structures can show the parent of a compound that is named as a salt.
Answers are plain numbers, in %.

// known answers, use as guide
MOLECULE | Purity % (%)
CN1OC2CCCC(=O)C2C1Cc1ccccc1.O=C(O)CCC(=O)O (centres unmarked) [BTG 1640 succinate] | 98.0
CN1OC2CCCC(=O)C2C1Cc1ccccc1.O=C(O)/C=C\C(=O)O (centres unmarked) [BTG 1640 maleate] | 100.0
CN1OC2CCCC(=O)C2C1Cc1ccccc1 (centres unmarked) [BTG 1640 fumarate] | 100.0
CN1OC2CCCC(=O)C2C1Cc1ccccc1.Cl (centres unmarked) [BTG 1640 hydrochloride] | 100.1

Consider the record given below.
Purity % reported for this molecule CN1OC2CCCC(=O)C2C1Cc1ccccc1.CS(=O)(=O)O (centres unmarked) [BTG 1640 methanesulphonate] : 99.5

###

experiment: Stability test of BTG 1640 salts: evaluation of total impurities; type: physicochemical; conditions: T = 25° C., humidity 60% RH; time 9 (months)
Structures can show the parent of a compound that is named as a salt.
Param threshold (0.2%) applies to % impurities; output TRUE when value >= threshold, FALSE when value < threshold.

Sample answers from the record:
COMPOUND | ANSWER_LABEL
CN1OC2CCCC(=O)C2C1Cc1ccccc1.O=C(O)/C=C\C(=O)O (centres unmarked) [BTG 1640 maleate] | TRUE
CN1OC2CCCC(=O)C2C1Cc1ccccc1 (centres unmarked) [BTG 1640 fumarate] | FALSE
CN1OC2CCCC(=O)C2C1Cc1ccccc1.O=C(O)CCC(=O)O (centres unmarked) [BTG 1640 succinate] | TRUE
CN1OC2CCCC(=O)C2C1Cc1ccccc1.CS(=O)(=O)O (centres unmarked) [BTG 1640 methanesulphonate] | TRUE

Please look at the following compound next.
Does CN1OC2CCCC(=O)C2C1Cc1ccccc1.Cl (centres unmarked) [BTG 1640 hydrochloride] have a reported % impurities of at least 0.2%? TRUE

###

experiment: Stability test of BTG 1640 salts: evaluation of total impurities; assay type: physicochemical; details: T = 30° C., humidity 65% RH; time 0
Structures can show the parent of a compound that is named as a salt.
% impurities vs 0.4%: less than gives MET; not less than gives NOT MET.

Sample answers from the record:
MOLECULE | ANSWER_LABEL
CN1OC2CCCC(=O)C2C1Cc1ccccc1.O=C(O)CCC(=O)O (centres unmarked) [BTG 1640 succinate] | NOT MET
CN1OC2CCCC(=O)C2C1Cc1ccccc1.O=C(O)/C=C\C(=O)O (centres unmarked) [BTG 1640 maleate] | MET
CN1OC2CCCC(=O)C2C1Cc1ccccc1.CS(=O)(=O)O (centres unmarked) [BTG 1640 methanesulphonate] | NOT MET
CN1OC2CCCC(=O)C2C1Cc1ccccc1 (centres unmarked) [BTG 1640 fumarate] | NOT MET

Report whether reported % impurities is lower than 0.4% (strictly) for CN1OC2CCCC(=O)C2C1Cc1ccccc1.Cl (centres unmarked) [BTG 1640 hydrochloride] MET

###

assay: Stability test of BTG 1640 salts: evaluation of total impurities; assay type: physicochemical; conditions: T = 5° C.; time 6 (months)
Structures can show the parent of a compound that is named as a salt.
Assignment: determine reported % impurities for the given compounds.
One number for each entry, in %.

List reported % impurities for each of these compounds:
1. CN1OC2CCCC(=O)C2C1Cc1ccccc1.O=C(O)/C=C\C(=O)O (centres unmarked) [BTG 1640 maleate]
2. CN1OC2CCCC(=O)C2C1Cc1ccccc1.O=C(O)CCC(=O)O (centres unmarked) [BTG 1640 succinate]
3. CN1OC2CCCC(=O)C2C1Cc1ccccc1 (centres unmarked) [BTG 1640 fumarate]
4. CN1OC2CCCC(=O)C2C1Cc1ccccc1.Cl (centres unmarked) [BTG 1640 hydrochloride]
5. CN1OC2CCCC(=O)C2C1Cc1ccccc1.CS(=O)(=O)O (centres unmarked) [BTG 1640 methanesulphonate]

0.10
1.90
0.10
0.45
0.74

###

Test: Stability test of BTG 1640 salts: purity under preservation conditions
Type: physicochemical
Conditions: T = 30° C., humidity 65% RH; time 3 (months)
Procedure: Samples of 100 mg each of BTG 1640 hydrochloride were subjected to the following preservation conditions: The purities were then analyzed periodically, initially every three months, in order to underline possible variations. […] Quarterly and in an overall period of nine months its purity was then analyzed in order to underline possible variations. […] The stabilities were then evaluated by subjecting samples of 100 mg of each salt to the following analogous preservation conditions: […]
Structures can show the parent of a compound that is named as a salt.
Assignment: determine reported Purity % for the given compounds.
Give bare numbers, in %.

// known answers, use as guide
COMPOUND | UNIT_SPEC | Purity %
CN1OC2CCCC(=O)C2C1Cc1ccccc1.CS(=O)(=O)O (centres unmarked) [BTG 1640 methanesulphonate] | % | 96.0
CN1OC2CCCC(=O)C2C1Cc1ccccc1.O=C(O)/C=C\C(=O)O (centres unmarked) [BTG 1640 maleate] | % | 99.5

List reported Purity % for each of these compounds:
1. CN1OC2CCCC(=O)C2C1Cc1ccccc1.O=C(O)CCC(=O)O (centres unmarked) [BTG 1640 succinate]
2. CN1OC2CCCC(=O)C2C1Cc1ccccc1.Cl (centres unmarked) [BTG 1640 hydrochloride]
3. CN1OC2CCCC(=O)C2C1Cc1ccccc1 (centres unmarked) [BTG 1640 fumarate]

1. 85.4
2. 100.0
3. 100.0

###

assay: Stability test of BTG 1640 salts: evaluation of total impurities; assay type: physicochemical; details: T = 5° C.; time 3 (months)
Structures can show the parent of a compound that is named as a salt.
METRIC: % impurities (%)
Answers are plain numbers, in %.

MOLECULE | UNIT_SPEC | VAL
CN1OC2CCCC(=O)C2C1Cc1ccccc1 (centres unmarked) [BTG 1640 fumarate] | % | 0.10
CN1OC2CCCC(=O)C2C1Cc1ccccc1.CS(=O)(=O)O (centres unmarked) [BTG 1640 methanesulphonate] | % | 0.55
CN1OC2CCCC(=O)C2C1Cc1ccccc1.O=C(O)CCC(=O)O (centres unmarked) [BTG 1640 succinate] | % | 2.00
CN1OC2CCCC(=O)C2C1Cc1ccccc1.O=C(O)/C=C\C(=O)O (centres unmarked) [BTG 1640 maleate] | % | 0.10

Consider the record given below.
% impurities reported for this molecule CN1OC2CCCC(=O)C2C1Cc1ccccc1.Cl (centres unmarked) [BTG 1640 hydrochloride] : 0.58

###

Assignment: determine reported % impurities for the given molecules.
experiment: Stability test of BTG 1640 salts: evaluation of total impurities; type: physicochemical; details: T = 5° C.; time 0
Where a name gives a salt, the structure may show the parent alone.
Give bare numbers, in %.

// known answers, use as guide
MOLECULE | UNIT_SPEC | % impurities
CN1OC2CCCC(=O)C2C1Cc1ccccc1.O=C(O)CCC(=O)O (centres unmarked) [BTG 1640 succinate] | % | 0.77
CN1OC2CCCC(=O)C2C1Cc1ccccc1 (centres unmarked) [BTG 1640 fumarate] | % | 0.49

List reported % impurities for each of these molecules:
1. CN1OC2CCCC(=O)C2C1Cc1ccccc1.O=C(O)/C=C\C(=O)O (centres unmarked) [BTG 1640 maleate]
2. CN1OC2CCCC(=O)C2C1Cc1ccccc1.CS(=O)(=O)O (centres unmarked) [BTG 1640 methanesulphonate]
3. CN1OC2CCCC(=O)C2C1Cc1ccccc1.Cl (centres unmarked) [BTG 1640 hydrochloride]

[0.23, 0.42, 0.36]

###

test: Stability test of BTG 1640 salts: purity under preservation conditions; format: physicochemical; details: T = 5° C.; time 6 (months)
Counter-ions that a name gives are not always drawn.
METRIC: Purity % (%)
One number for each entry, in %.

MOLECULE | Purity %, %
CN1OC2CCCC(=O)C2C1Cc1ccccc1 (centres unmarked) [BTG 1640 fumarate] | 100.0
CN1OC2CCCC(=O)C2C1Cc1ccccc1.Cl (centres unmarked) [BTG 1640 hydrochloride] | 100.3
CN1OC2CCCC(=O)C2C1Cc1ccccc1.O=C(O)CCC(=O)O (centres unmarked) [BTG 1640 succinate] | 98.1
CN1OC2CCCC(=O)C2C1Cc1ccccc1.CS(=O)(=O)O (centres unmarked) [BTG 1640 methanesulphonate] | 99.3

Consider the record given below.
Purity % reported for this molecule CN1OC2CCCC(=O)C2C1Cc1ccccc1.O=C(O)/C=C\C(=O)O (centres unmarked) [BTG 1640 maleate] : 100.0

###

Experiment: Absorption kinetic: plasma concentration of BTG 1640 after oral gavage
Type: in vivo, rats Sprague Dawley
Conditions: Sprague Dawley, rat, in vivo, po, 10 mg/kg
Protocol: Absorption extent and rate of molecule BTG 1640 in its forms of fumarate and hydrochloride salts were evaluated. With this intent, the two salts were dispersed in an aqueous suspension of arabic gum at 5% thus obtaining two formulations, each one orally administered through oesophageous gavage at dose of 10 mg/kg (expressed as free base of BTG 1640) to five rats Sprague Dawley. Plasma concentration of molecule BTG 1640 was determined at different time points.
Structures can show the parent of a compound that is named as a salt.
METRIC: concentration at 90 min (ng/mL)
Numbers only, in ng/mL.

concentration at 90 min reported for this compound CN1OC2CCCC(=O)C2C1Cc1ccccc1 (stereo not shown) [BTG 1640 fumarate] : 0
